Data origin, for the record: the Immune Epitope Database (IEDB)

target: HLA-B*27:05; assay: IEDB peptide-MHC binding, purified MHC/direct/fluorescence; filed as Kd, often an IC50 or EC50 that approximates it; bounds were set here for any values at or beyond the usual limits of such assays; settings: source organism: Influenza A virus (A/Duck/Shantou/1881/00(H9N2))

Chain: SLPPNFSSL
Kd: ≥ 20 µM

----------
biological target: HLA-B*40:01; experiment: IEDB peptide-MHC binding, purified MHC/competitive/radioactivity; filed as Kd, often an IC50 or EC50 that approximates it; bounds were set here for any values at or beyond the usual limits of such assays; conditions: source organism: Mammarenavirus juninense
pKd: −log10 of the molar value.

Chain: SEILRTLGF
pKd: 5.38

----------
Listed below: pKd values for each entry.
target: HLA-B*53:01; experiment: IEDB peptide-MHC binding, purified MHC/competitive/radioactivity; filed as Kd, often an IC50 or EC50 that approximates it; bounds were set here for any values at or beyond the usual limits of such assays; settings: source organism: Mammarenavirus lassaense
pKd: −log10 of the molar value.

Chain: FPAQPGLTSA
Measured on: HLA-B*53:01
pKd: 5.54
--
Chain: YPNSSDLDM
Measured on: HLA-B*53:01
pKd: 7.85

----------
target: HLA-B*18:01; experiment: IEDB peptide-MHC binding, purified MHC/direct/fluorescence; filed as Kd, often an IC50 or EC50 that approximates it; bounds were set here for any values at or beyond the usual limits of such assays; conditions: source organism: Bacillus anthracis str. A0465

Chain: RLLRFTGLF
Kd: ≥ 20 µM

----------
molecular target: HLA-A*01:01; experiment: IEDB peptide-MHC binding, purified MHC/competitive/fluorescence; filed as Kd, often an IC50 or EC50 that approximates it; bounds were set here for any values at or beyond the usual limits of such assays; conditions: source organism: Paraglaciecola sp. T6c
Measurement kind: Kd (nM)

Chain: VLDMGDPVK
Measured on: HLA-A*01:01
Measurement kind: Kd
Measured: 2590

----------
target: HLA-B*27:05; experiment: IEDB peptide-MHC binding, purified MHC/direct/fluorescence; filed as Kd, often an IC50 or EC50 that approximates it; bounds were set here for any values at or beyond the usual limits of such assays; details: source organism: Orthohantavirus hantanense
pKd: −log10 of the molar value.
Measurement kind: pKd

Chain: RLKPVGSAY
Measured: 5.07

----------
target: HLA-B*07:02; test: IEDB peptide-MHC binding, purified MHC/competitive/fluorescence; filed as Kd, often an IC50 or EC50 that approximates it; bounds were set here for any values at or beyond the usual limits of such assays; conditions: source organism: Lyssavirus rabies
pKd: −log10 of the molar value.

Chain: YLDNVGVHI
pKd: ≤ 5.30

----------
biological target: HLA-A*02:19; assay: IEDB peptide-MHC binding, purified MHC/direct/fluorescence; filed as Kd, often an IC50 or EC50 that approximates it; bounds were set here for any values at or beyond the usual limits of such assays; conditions: source organism: Listeria monocytogenes serotype 4b str. H7858
pKd: −log10 of the molar value.
Measurement kind: pKd

Chain: FPDGKPFTL
Measurement kind: pKd
Measured: ≤ 4.70

Chain: ERYPGGVSL
Measurement kind: pKd
Measured: ≤ 4.70

----------
biological target: HLA-B*40:01; assay: IEDB peptide-MHC binding, purified MHC/direct/fluorescence; filed as Kd, often an IC50 or EC50 that approximates it; bounds were set here for any values at or beyond the usual limits of such assays; conditions: source organism: Shigella sonnei Ss046
pKd: −log10 of the molar value.

Chain: VLDMGDPVK
pKd: ≤ 4.70

----------
target: HLA-A*32:01; experiment: IEDB peptide-MHC binding, purified MHC/competitive/radioactivity; filed as Kd, often an IC50 or EC50 that approximates it; bounds were set here for any values at or beyond the usual limits of such assays; conditions: source organism: Vaccinia virus WR
Listed below: Kd values for each entry.
Measurement kind: Kd (nM)

Chain: NMFNISFRF
Measurement kind: Kd
Units label: nM
Measured: 3.6
--
Chain: RTNNAELDF
Measurement kind: Kd
Units label: nM
Measured: 131
--
Chain: RSLIIVLLF
Measurement kind: Kd
Units label: nM
Measured: 299
--
Chain: HLMFYTLPI
Measurement kind: Kd
Units label: nM
Measured: 0.177
--
Chain: LMDMITLSL
Measurement kind: Kd
Units label: nM
Measured: 29.7
--
Chain: KPNSFTFSF
Measurement kind: Kd
Units label: nM
Measured: 13900
--
Chain: KLITFLFVI
Measurement kind: Kd
Units label: nM
Measured: 0.409
--
Chain: RTIFNFHLI
Measurement kind: Kd
Units label: nM
Measured: 2.09

----------
target: HLA-B*15:02; experiment: IEDB peptide-MHC binding, purified MHC/competitive/fluorescence; filed as Kd, often an IC50 or EC50 that approximates it; bounds were set here for any values at or beyond the usual limits of such assays; conditions: source organism: Clostridium botulinum A str. ATCC 3502
pKd: −log10 of the molar value.

Chain: HMLVVIRKY
pKd: 6.71

----------
Listed below: IC50 values for each entry.
target: HLA-A*24:02; test: IEDB peptide-MHC binding, purified MHC/competitive/fluorescence; bounds were set here for any values at or beyond the usual limits of such assays; details: source organism: Sudan ebolavirus

Chain: SSYYATSYL
IC50: 0.955 µM
//
Chain: EWAFWENKK
IC50: 15.3 µM
//
Chain: FFVWVIILF
IC50: 1.51 µM
//
Chain: TYTILNRKA
IC50: 22.1 µM
//
Chain: GIAWIPYFG
IC50: ≥ 76.2 µM

----------
molecular target: HLA-B*40:01; assay: IEDB peptide-MHC binding, purified MHC/direct/fluorescence; filed as Kd, often an IC50 or EC50 that approximates it; bounds were set here for any values at or beyond the usual limits of such assays; conditions: source organism: Mammarenavirus lassaense

Chain: NETGLELTL
Kd: 19 nM

----------
biological target: HLA-B*15:17; assay: IEDB peptide-MHC binding, purified MHC/competitive/fluorescence; filed as Kd, often an IC50 or EC50 that approximates it; bounds were set here for any values at or beyond the usual limits of such assays; details: source organism: Giardia lamblia ATCC 50803
pKd: −log10 of the molar value.
Measurement kind: pKd

Chain: KSNRIPFLY
Measured on: HLA-B*15:17
Measurement kind: pKd
Measured: 8.00

----------
target: HLA-A*02:19; assay: IEDB peptide-MHC binding, purified MHC/competitive/fluorescence; filed as Kd, often an IC50 or EC50 that approximates it; bounds were set here for any values at or beyond the usual limits of such assays; details: source organism: Rickettsia felis URRWXCal2
pKd: −log10 of the molar value.

Chain: QYLFSLTYV
pKd: ≤ 4.70

----------
molecular target: HLA-A*32:15; experiment: IEDB peptide-MHC binding, purified MHC/competitive/fluorescence; filed as Kd, often an IC50 or EC50 that approximates it; bounds were set here for any values at or beyond the usual limits of such assays; conditions: source organism: Shigella flexneri 5 str. 8401
Measurement kind: Kd (nM)

Chain: IIMRRFFYF
Measurement kind: Kd
Units label: nM
Measured: 67.7

----------
biological target: HLA-A*02:12; assay: IEDB peptide-MHC binding, purified MHC/direct/fluorescence; filed as Kd, often an IC50 or EC50 that approximates it; bounds were set here for any values at or beyond the usual limits of such assays; conditions: source organism: Influenza A virus (A/Memphis/1/1986(H3N2))
pKd: −log10 of the molar value.

Chain: NHDGIQAGV
pKd: ≤ 4.70

----------
biological target: HLA-A*30:01; test: IEDB peptide-MHC binding, purified MHC/direct/fluorescence; filed as Kd, often an IC50 or EC50 that approximates it; bounds were set here for any values at or beyond the usual limits of such assays; conditions: source organism: Giardia lamblia ATCC 50803
pKd: −log10 of the molar value.

Chain: FMGRLGPEY
pKd: 4.79

----------
target: HLA-B*40:02; assay: IEDB peptide-MHC binding, purified MHC/competitive/radioactivity; filed as Kd, often an IC50 or EC50 that approximates it; bounds were set here for any values at or beyond the usual limits of such assays; conditions: source organism: Mammarenavirus juninense
pKd: −log10 of the molar value.

Chain: SEILRTLGF
pKd: 7.25

----------
target: HLA-A*02:03; experiment: IEDB peptide-MHC binding, purified MHC/competitive/radioactivity; filed as Kd, often an IC50 or EC50 that approximates it; bounds were set here for any values at or beyond the usual limits of such assays; details: source organism: Homo sapiens
Measurement kind: Kd (nM)

Chain: YVASYLLAA
Measurement kind: Kd
Units label: nM
Measured: 0.978

----------
biological target: HLA-A*02:06; assay: IEDB peptide-MHC binding, purified MHC/competitive/radioactivity; filed as Kd, often an IC50 or EC50 that approximates it; bounds were set here for any values at or beyond the usual limits of such assays; conditions: source organism: Vaccinia virus WR
Measurement kind: Kd

Chain: NIISYIILFI
Measurement kind: Kd
Measured: 0.072 µM

Chain: TIDNIVTSLA
Measurement kind: Kd
Measured: ≥ 69.8 µM

Chain: KLFTHDIML
Measurement kind: Kd
Measured: 0.00474 µM

Chain: YTGGYDVSL
Measurement kind: Kd
Measured: ≥ 20.3 µM

Chain: IVCSKTVKNV
Measurement kind: Kd
Measured: 2.76 µM

Chain: NLRCHSAHV
Measurement kind: Kd
Measured: 8.03 µM

Chain: ITTLLNETA
Measurement kind: Kd
Measured: 0.596 µM

Chain: PANINDKQIM
Measurement kind: Kd
Measured: 10.9 µM

Chain: SVQLSNNKYV
Measurement kind: Kd
Measured: 8.83 µM

Chain: DTIAHINTLI
Measurement kind: Kd
Measured: ≥ 62.2 µM

Chain: KTKISVEKI
Measurement kind: Kd
Measured: 10.7 µM

Chain: PLTLLIKTL
Measurement kind: Kd
Measured: 8.1 µM

Chain: EILRNYLRL
Measurement kind: Kd
Measured: 13 µM

Chain: LTNKKYRCMA
Measurement kind: Kd
Measured: ≥ 69.8 µM

Chain: DTSNNIAEYI
Measurement kind: Kd
Measured: ≥ 45.7 µM

Chain: TTNNLLEQLI
Measurement kind: Kd
Measured: 13.1 µM

Chain: SVDVDIYDAV
Measurement kind: Kd
Measured: 0.0033 µM

Chain: LVDKEDTDIV
Measurement kind: Kd
Measured: ≥ 27.1 µM

Chain: DLKHATDYIA
Measurement kind: Kd
Measured: 1.05 µM

Chain: IMRVMANNV
Measurement kind: Kd
Measured: 2.5 µM

Chain: TTFITVLTSV
Measurement kind: Kd
Measured: 0.166 µM

Chain: IAGIILLIL
Measurement kind: Kd
Measured: ≥ 77.1 µM

Chain: CAVIPFDDIV
Measurement kind: Kd
Measured: 0.184 µM

Chain: VVECLTVPNI
Measurement kind: Kd
Measured: 0.301 µM

Chain: QTVDFTDCRT
Measurement kind: Kd
Measured: 3.64 µM

Chain: GLCNYGGILI
Measurement kind: Kd
Measured: 5.03 µM

Chain: KTDGAVTSPL
Measurement kind: Kd
Measured: 0.347 µM

Chain: RLYNSLKRFT
Measurement kind: Kd
Measured: 7.29 µM

Chain: YIWIKNLET
Measurement kind: Kd
Measured: 0.347 µM

Chain: SAFNDDGIYI
Measurement kind: Kd
Measured: 0.0409 µM

Chain: TAATKRYPGV
Measurement kind: Kd
Measured: 5.57 µM

Chain: YLLGDSDSVA
Measurement kind: Kd
Measured: 0.135 µM

Chain: RVKQWVMDTL
Measurement kind: Kd
Measured: ≥ 27.8 µM

Chain: LIYDDNIDSI
Measurement kind: Kd
Measured: 0.212 µM

Chain: DIYDAVRAFL
Measurement kind: Kd
Measured: 12.1 µM

Chain: IIRVTTELNI
Measurement kind: Kd
Measured: 13.7 µM

Chain: LMIFISSFL
Measurement kind: Kd
Measured: 0.0178 µM

Chain: SINNQLMYDI
Measurement kind: Kd
Measured: 4.83 µM

Chain: FTNSQIFNII
Measurement kind: Kd
Measured: 1.2 µM

Chain: LTTVFIKYV
Measurement kind: Kd
Measured: 0.13 µM

Chain: VAVNKSNKPL
Measurement kind: Kd
Measured: 17.6 µM

Chain: NITTLLNET
Measurement kind: Kd
Measured: 2.31 µM

Chain: YIENTNQGNI
Measurement kind: Kd
Measured: 6.2 µM

Chain: LLTACTIFYI
Measurement kind: Kd
Measured: 0.0558 µM
